Reported IC50, IRAK4 (Homo sapiens (Human), UniProt Q9NWZ3).
Counter-ions that a name gives are not always drawn.

Req: Give IC50; test system IRAK4 (Homo sapiens (Human), UniProt Q9NWZ3); compound Cn1cc(-c2cccc(-c3ncc(-c4cnn(C)c4)c(NCC4CCN(S(C)(=O)=O)CC4F)n3)c2)cn1 (stereo not shown)
Resp: < 0.1 µM

Req: Provide the reported IC50 (system: IRAK4 (Homo sapiens (Human), UniProt Q9NWZ3)) for "Cn1cc(-c2cccc(-c3ncc(-c4cnn(C)c4)c(N[C@H]4CC[C@@H](N)CC4)n3)c2)cn1"
Sequence (Q9NWZ3 whole entry): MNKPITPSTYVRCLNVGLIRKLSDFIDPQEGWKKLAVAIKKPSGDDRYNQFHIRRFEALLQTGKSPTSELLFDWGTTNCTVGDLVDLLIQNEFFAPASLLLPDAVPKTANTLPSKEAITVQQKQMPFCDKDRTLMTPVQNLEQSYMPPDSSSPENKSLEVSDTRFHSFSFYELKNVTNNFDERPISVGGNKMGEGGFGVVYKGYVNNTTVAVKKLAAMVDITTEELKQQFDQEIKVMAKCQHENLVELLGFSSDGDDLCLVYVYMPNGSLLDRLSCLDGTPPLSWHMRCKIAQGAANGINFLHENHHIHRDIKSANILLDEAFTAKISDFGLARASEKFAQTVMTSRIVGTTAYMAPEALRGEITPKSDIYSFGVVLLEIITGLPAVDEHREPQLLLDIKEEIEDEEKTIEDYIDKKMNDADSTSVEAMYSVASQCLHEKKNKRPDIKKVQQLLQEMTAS
Resp: < 0.1 µM

Req: Report measured IC50 on IRAK4 (Homo sapiens (Human), UniProt Q9NWZ3); entry: Cn1cc(-c2cccc(-c3ncc(-c4cnn(C)c4)c(NCC(=O)O)n3)c2)cn1 [Example 26, Formate]
Resp: > 5 µM

Req: # return IC50 of "Cn1cc(-c2cccc(-c3ncc(-c4cnn(C)c4)c(NCCN4CCNC4=O)n3)c2)cn1" (system: IRAK4 (Homo sapiens (Human), UniProt Q9NWZ3))
Resp: 1 to 5 µM

----------
pIC50: −log10 of the molar value. Where a name gives a salt, the structure may show the parent alone.
Assay Readout: pIC50

Req: Report pIC50 from IRAK4 (Homo sapiens (Human)) testing of Cn1cc(-c2cccc(-c3ncc(-c4cnn(C)c4)c(NCCO)n3)c2)cn1 [Example 96]
Resp: > 7.00

Req: # assay system IRAK4 (Homo sapiens (Human)): give pIC50 of Cn1cc(-c2cccc(-c3ncc(-c4cnn(C)c4)c(NC[C@@H]4CCC(=O)N4)n3)c2)cn1 [Example 61]
Resp: 6.00 to 7.00

Req: Give reported pIC50 for Cn1cc(-c2cccc(-c3ncc(-c4cnn(C)c4)c(N[C@H]4CC[C@H](NS(=O)(=O)C5CC5)CC4)n3)c2)cn1 [Example 276] (IRAK4 (Homo sapiens (Human)))
Resp: > 7.00

Req: Identify measured pIC50 obtained with IRAK4 (Homo sapiens (Human)) for Cn1cc(-c2cccc(-c3ncc(-c4cnn(C)c4)c(NC4(CO)COC4)n3)c2)cn1 [Example 92] .
Resp: < 5.30

Req: Provide IRAK4 (Homo sapiens (Human)) pIC50 reading for CC(=O)N1CCC(Nc2nc(-c3cccc(-c4cnn(C)c4)c3)ncc2-c2cnn(C)c2)CC1 [Example 255] .
Resp: 6.00 to 7.00

Req: GET pIC50 where system = IRAK4 (Homo sapiens (Human)) and item = Cn1cc(-c2cccc(-c3ncc(-c4cnn(C)c4)c(N4CC[C@@H](N)C4)n3)c2)cn1 [Example 241]
Resp: 6.00 to 7.00

Req: Find the measured pIC50 of Cn1cc(-c2cccc(-c3ncc(-c4cnn(C)c4)c(NCC4CCCNC4)n3)c2)cn1 (centres unmarked) [Example 4, Hydrochloride] with IRAK4 (Homo sapiens (Human)) as test system.
Resp: 5.30 to 6.00

Req: Give pIC50 for Cn1cc(-c2cccc(-c3ncc(-c4cnn(C)c4)c(NC4CC5CCC4N5)n3)c2)cn1 (centres unmarked) [Example 193] tested on IRAK4 (Homo sapiens (Human)).
Resp: 6.00 to 7.00

Req: Give pIC50; test system IRAK4 (Homo sapiens (Human)); compound Cn1cc(-c2cccc(-c3ncc(-c4cnn(C)c4)c(N[C@H]4C[C@@H](O)C4)n3)c2)cn1 [Example 46]
Resp: 6.00 to 7.00

Req: Check IRAK4 (Homo sapiens (Human)) data and give pIC50 for Cn1cc(-c2cccc(-c3ncc(-c4ccn(C)n4)c(NCCCO)n3)c2)cn1 [Example 68] .
Resp: 6.00 to 7.00

Req: Fetch value of pIC50 on IRAK4 (Homo sapiens (Human)) for Cn1cc(-c2cccc(-c3ncc(-c4cnn(C)c4)c(N4CCC(O)C4)n3)c2)cn1 (centres unmarked) [Example 218] .
Resp: 6.00 to 7.00

Req: Give the observed pIC50 of Cn1cc(-c2cccc(-c3ncc(-c4cnn(C)c4)c(NCC4(O)CCN(S(C)(=O)=O)CC4)n3)c2)cn1 [Example 249] for IRAK4 (Homo sapiens (Human)).
Resp: 6.00 to 7.00

Req: Enter measured pIC50, system IRAK4 (Homo sapiens (Human)), for the compound shown: Cn1cc(-c2cccc(-c3ncc(-c4nnc(C(=O)N5CC[C@@H](O)C5)s4)c(NC4CCCNC4)n3)c2)cn1 (some centres unmarked) [Example 20, Hydrochloride]
Resp: 5.30 to 6.00

Req: Consider the compound Cn1cc(-c2cccc(-c3ncc(-c4cnn(C)c4)c(NCC(F)(F)C(F)(F)C(F)(F)F)n3)c2)cn1 [Example 272] tested on IRAK4 (Homo sapiens (Human)); state its pIC50.
Resp: > 7.00

Req: Determine reported pIC50 for Cn1cc(-c2cccc(-c3ncc(-c4cnn(C)c4)c(N[C@@H]4CC[C@H](NS(C)(=O)=O)C4)n3)c2)cn1 (racemic) [Example 176] ; test system: IRAK4 (Homo sapiens (Human)).
Resp: > 7.00

Req: Name the value of pIC50 reported for Cn1cc(-c2cccc(-c3ncc(-c4cnn(C)c4)c(N[C@H]4C[C@@H](NS(C)(=O)=O)C4)n3)c2)cn1 [Example 183] when tested on IRAK4 (Homo sapiens (Human)).
Resp: > 7.00

Req: Retrieve pIC50 on IRAK4 (Homo sapiens (Human)); query Cn1cc(-c2cccc(-c3ncc(-c4cnn(C)c4)c(NCCCS(C)(=N)=O)n3)c2)cn1 (centres unmarked) [Example 282]
Resp: 6.00 to 7.00

Req: System IRAK4 (Homo sapiens (Human)). Read-out pIC50. Item CC(=O)NCCCNc1nc(-c2cccc(-c3cnn(C)c3)c2)ncc1-c1cnn(C)c1 [Example 109] . Report value.
Resp: 6.00 to 7.00

Req: Report pIC50 under test system IRAK4 (Homo sapiens (Human)) for Cn1cc(-c2cccc(-c3ncc(-c4cnn(C)c4)c(N4C[C@@H](N)CC(F)(F)C4)n3)c2)cn1 [Example 284] .
Resp: > 7.00

Req: Report pIC50 under test system IRAK4 (Homo sapiens (Human)) for Cn1cc(-c2cccc(-c3ncc(-c4cnn(C)c4)c(NC4CCC5CNCC54)n3)c2)cn1 (centres unmarked) [Example 150] .
Resp: 6.00 to 7.00

Req: Tell me its pIC50 on IRAK4 (Homo sapiens (Human)): Cn1cc(-c2cccc(-c3ncc(-c4cnn(C)c4)c(N[C@H]4CCCC[C@@H](O)[C@H]4O)n3)c2)cn1 (stereo in doubt) [Example 248]
Resp: > 7.00

Req: // fetch pIC50 for Cn1cc(-c2cccc(-c3ncc(-c4ccn(C)n4)c(NCCN4CCOC4=O)n3)c2)cn1 [Example 91] ; system: IRAK4 (Homo sapiens (Human))
Resp: < 5.30

Req: Please look at Cn1cc(-c2cccc(-c3ncc(-c4cnn(C)c4)c(NC[C@H]4CCNC4)n3)c2)cn1 [Example 64] and tell me its recorded pIC50 on IRAK4 (Homo sapiens (Human)).
Resp: 6.00 to 7.00

Req: Answer briefly: pIC50 recorded on IRAK4 (Homo sapiens (Human)) for Cn1cc(-c2cccc(-c3ncc(-c4cnn([C@H]5CC[C@]6(CCC(=O)N6C)CC5)c4)c(NCC4CCNCC4)n3)c2)cn1 [Example 86, Hydrochloride]
Resp: > 7.00

Req: Jot down pIC50 (IRAK4 (Homo sapiens (Human))) of Cc1cc(-c2cccc(-c3cnn(C)c3)c2)ncc1-c1cnn(C2CCOCC2)c1 [Example 24] .
Resp: 5.30 to 6.00

Req: // fetch pIC50 for Cn1cc(-c2cccc(-c3ncc(-c4cnn(C)c4)c(NC4CCCCN(S(C)(=O)=O)C4)n3)c2)cn1 (centres unmarked) [Example 178] ; system: IRAK4 (Homo sapiens (Human))
Resp: 6.00 to 7.00

Req: Look up and report measured pIC50 (IRAK4 (Homo sapiens (Human))) for the following compound: Cn1cc(-c2cccc(-c3ncc(-c4cnn(C)c4)c(N[C@H]4CCC[C@@H](O)[C@H]4O)n3)c2)cn1 [Example 268]
Resp: > 7.00

Req: Please indicate recorded pIC50 of Cn1cc(-c2cccc(-c3ncc(-c4cnn(C)c4)c(NCC4CC(F)(F)C4)n3)c2)cn1 [Example 42] measured with IRAK4 (Homo sapiens (Human)).
Resp: 6.00 to 7.00

Req: Give measured pIC50 for Cn1cc(-c2cccc(-c3ncc(-c4cnn(C)c4)c(NC4CCOC4)n3)c2)cn1 (centres unmarked) [Example 41] (IRAK4 (Homo sapiens (Human))).
Resp: 6.00 to 7.00
